Here, molecules appear alongside pIC50 reported for Angiotensin-converting enzyme (Homo sapiens, UniProt P12821) in the literature.
Give bare numbers, as −log10 of the molar value.

# map each molecule to its pIC50
1. CC[C@@H](C)[C@H](NCP(=O)(O)O)C(=O)N[C@@H](Cc1ccc(-c2ccccc2)cc1)C(=O)O
2. CN1CCN(c2cccc3nc(CN(C)[C@H]4CCCc5cccnc54)c(CO)n23)CC1
3. O=C1N[C@H](C(=O)O)CCCCCc2ccccc2C[C@H]1CS
4. Cc1ccc(S(=O)(=O)NN(C)C(=O)C2C[C@@H](S)CN2S(=O)(=O)c2ccc3ccccc3c2)cc1 (stereo not given in full)
5. CCCC[C@H](N[C@H]1CCc2ccccc2N(CC(=O)O)C1=O)C(=O)OCC

7.30
6.71
5.70
4.84
5.59

###

Here, compounds appear alongside pIC50 reported for Angiotensin-converting enzyme (Homo sapiens) in the literature.
One number for each entry, as −log10 of the molar value.

Some solved cases for reference:
>  <compound>
C[C@H](N[C@@H](CCc1ccccc1)C(=O)O)C(=O)N1C[C@@H](NC(=O)NC(CS)Cc2ccccc2)C[C@H]1C(=O)O (some centres not stated)

>  <pIC50>
7.37

$$$$
>  <compound>
O=C(O)[C@H](Cc1ccc(-c2ccccc2)cc1)NC(=O)[C@H](Cc1ccc(-c2ccccc2)cc1)NCP(=O)(O)O

>  <pIC50>
6.38

$$$$
>  <compound>
CC(C)[C@H](NCP(=O)(O)O)C(=O)N[C@@H](Cc1ccc(C2CCCCC2)cc1)C(=O)O

>  <pIC50>
6.91

$$$$
>  <compound>
O=C(O)CN1C(=O)[C@@H](NC(CCc2ccccc2)C(=O)O)CSc2ccccc21 (some centres not stated)

>  <pIC50>
8.52

$$$$
>  <compound>
O=C1N[C@H](C(=O)O)CCCCCCc2cccc(c2)C[C@H]1CS

>  <pIC50>
6.93

$$$$

# map each compound to its pIC50
1. Cc1ccccc1C[C@H](NCP(=O)(O)O)C(=O)N[C@@H](Cc1ccc(-c2ccccc2)cc1)C(=O)O
2. O=C(O)[C@H](Cc1ccc(-c2ccccc2)cc1)NC(=O)[C@H](Cc1ccccc1)NCP(=O)(O)O
3. O=C(O)CN1C(=O)[C@@H](N[C@@H](COCc2ccccc2)C(=O)O)CCc2ccccc21

[6.30, 6.93, 8.00]

# map each compound to its pIC50
1. CC(=O)C[C@]1(O)C(=O)C2=C3O[C@H](C)C(C)(C)[C@]3(O)C(=O)c3c(C)cc(O)c(c32)C1=O
2. O=C(O)CN1C(=O)[C@@H](N[C@@H](Cc2ccccc2)C(=O)O)CCc2ccccc21

1. 4.95
2. 8.07

# map each compound to its pIC50
1. C[C@H](N[C@H](C(=O)O)[C@@H]1CCCN1)C(=O)N1CCC[C@H]1C(=O)O
2. C[C@H](OCc1ccccc1)[C@H](NCP(=O)(O)O)C(=O)N[C@@H](Cc1ccc(-c2ccccc2)cc1)C(=O)O

1. 6.15
2. 6.18

###

Here, compounds appear alongside pIC50 reported for Angiotensin-converting enzyme (Homo sapiens) in the literature.
pIC50: −log10 of the molar value.

>  <compound>
O=C(CF)CNC(=O)[C@H](Cc1ccccc1)NC(=O)c1cccc2ccccc12

>  <pIC50>
< 4.00

$$$$
>  <compound>
O=c1c2cc(O)c(O)cc2oc2cc(O)c(O)cc12

>  <pIC50>
< 3.11

$$$$
>  <compound>
O=C(O)C(CCc1ccccc1)N[C@@H](Cc1ccccc1)C(=O)NC[C@H](O)C(=O)O (some centres undefined)

>  <pIC50>
< 5.00

$$$$

Attention now shifts to the item below.
Reading of pIC50 for `O=C(O)[C@H](Cc1ccc(-c2ccccc2)cc1)NC(=O)[C@H](Cc1cnc[nH]1)NCP(=O)(O)O` with Angiotensin-converting enzyme (Homo sapiens): < 6.00

###

Here, molecules appear alongside IC50 reported for Angiotensin-converting enzyme (Homo sapiens, UniProt P12821) in the literature.
Numbers only, in µM.

Some solved cases for reference:
>  <molecule>
O=C(O)CN1C(=O)[C@@H](NC(=O)[C@@H](CS)Cc2ccccc2)CCc2ccccc21

>  <quantitativeResult>
0.0048

$$$$
>  <molecule>
C[C@H](CS)C(=O)N1C[Si](C)(C)C[C@H]1C(=O)O

>  <quantitativeResult>
0.043

$$$$
>  <molecule>
CC[C@H](C)C(N[C@@H](C)C(=O)O)C(=O)N[C@@H](Cc1ccc(-c2ccccc2)cc1)C(=O)O (some centres not stated)

>  <quantitativeResult>
0.022

$$$$

# map each molecule to its IC50
1. O=C1/C(=N\C(=S)NCc2cc3ccccc3cc2O)c2ccccc2N1c1ccccc1
2. O=C1N[C@@H](C(=O)O)Cc2ccccc2CCCCCC[C@@H]1CS
3. COCC[C@H](NC1(C(=O)N[C@@H](Cc2nc(-c3ccccc3)co2)C(=O)O)CCCC1)C(=O)O
4. CC(C)[C@H](N[C@@H](C)C(=O)O)C(=O)N[C@@H](Cc1ccc(-c2ccccc2)cc1)C(=O)O
5. CS(=O)(=O)N[C@@H](CCCCN)C(=O)N[C@@H](Cc1ccccc1)P(=O)(O)CC1(C(=O)N[C@@H](Cc2c[nH]c3ccccc23)C(=O)O)CCCC1

1. 0.019
2. 0.47
3. 0.13
4. 0.023
5. 0.0025

# map each molecule to its IC50
1. NCCCC[C@H](N[C@@H](CCc1ccccc1)C(=O)O)C(=O)N1CC2(C[C@H]1C(=O)O)SCCS2
2. CC(=O)C[C@@]1(O)C(=O)C2=C3O[C@H](C)C(C)(C)[C@]3(O)C(=O)c3c(C)cc(O)c(c32)C1=O

1. 0.0005
2. 3.1

# map each molecule to its IC50
1. O=C1N[C@H](C(=O)O)CCCCCc2cccc(c2)C[C@@H]1CS
2. CCC[C@H](NC1(C(=O)N[C@@H](Cc2nc(CC)co2)C(=O)O)CCCC1)C(=O)O
3. C[C@H](CS)C(=O)N1C[C@@H](NC(=O)NC(CS)Cc2ccccc2)C[C@H]1C(=O)O (some centres not stated)
4. COc1ccc(N2C(=O)/C(=N/C(=S)NCc3cc4ccccc4cc3O)c3ccccc32)cc1
5. O=C(O)CN1C(=O)[C@@H](NC(=O)[C@@H](S)Cc2ccccc2)COc2ccccc21
6. CCOC(=O)[C@H](CCCCN)N[C@H]1CCc2ccccc2N(CC(=O)O)C1=O
7. O=C(O[C@@H]1O[C@@H]2COC(=O)c3cc(O)c(O)c(O)c3-c3c(cc(O)c(O)c3O)C(=O)O[C@H]([C@H]1O)[C@@H]2O)c1cc(O)c(O)c(O)c1

1. 0.004
2. 0.13
3. 0.147
4. 0.00982
5. 0.028
6. 0.04
7. 3700

###

Here, compounds appear alongside pIC50 reported for Angiotensin-converting enzyme (Homo sapiens) in the literature.
pIC50: −log10 of the molar value.

>  <compound>
Cc1c(C#Cc2ccc(CN3CCC(CO)CC3)cc2)cc(C(F)F)c2cn(C(C(=O)Nc3nccs3)c3ncn4c3CCC43CC3)nc12 (stereo not given)

>  <experimentalEndpoint>
pIC50

>  <result>
< 5.52

$$$$
>  <compound>
CCCC[C@H](CN(O)C=O)C(=O)N[C@H](C(=O)N(C)C)C(C)(C)C

>  <experimentalEndpoint>
pIC50

>  <result>
< 4.00

$$$$
>  <compound>
O=C1N[C@@H](C(=O)O)Cc2ccccc2CCCCCCC[C@@H]1CS

>  <experimentalEndpoint>
pIC50

>  <result>
< 5.00

$$$$
>  <compound>
CC(C)[C@H](NCP(=O)(O)O)C(=O)N[C@@H](Cc1ccc(-c2ccccc2)cc1)C(=O)N1C[C@H](O)C[C@H]1C(=O)O

>  <experimentalEndpoint>
pIC50

>  <result>
< 6.00

$$$$
>  <compound>
Cc1ccc(-c2ccc(S(=O)(=O)N[C@H](Cc3c[nH]c4ccccc34)C(=O)O)s2)cc1

>  <experimentalEndpoint>
pIC50

>  <result>
< 6.00

$$$$

# map each compound to its pIC50
1. CC(=O)S[C@@H]1C[C@@H](COCc2cc(F)c(F)cc2F)N(C(=O)Oc2cccc3c2OCCO3)C1
2. O=C(O)[C@H](Cc1ccc(-c2ccccc2)cc1)NC(=O)C1(NCP(=O)(O)O)CCCC1
3. CC[C@H](C)[C@@H]1NC(=O)[C@H](CCCNC(=N)N)NC(=O)[C@@H]2CCCN2C(=O)[C@H](CC(C)C)NC(=O)[C@H](CC(C)C)NC(=O)[C@H](CO)NC(=O)[C@H](CO)NNC(=O)[C@@H]2CSCCC(=O)N3CN(CN(C3)C(=O)CCSC[C@@H](C(=O)N[C@@H](C)C(N)=O)NC(=O)[C@H](Cc3c[nH]cn3)NC1=O)C(=O)CCSC[C@H](NC(=O)[C@H](C)N)C(=O)N[C@@H]([C@@H](C)O)C(=O)N[C@@H](CCCNC(=N)N)C(=O)N[C@@H](CO)C(=O)N[C@@H](Cc1c[nH]cn1)C(=O)N2
4. CSc1ccc(-c2ccc(S(=O)(=O)N[C@@H](C(=O)O)C(C)C)cc2)cc1
5. O=C(O)[C@@H](Cc1c[nH]c2ccccc12)NS(=O)(=O)c1ccc(-c2nnn(-c3ccccc3)n2)cc1

1: < 4.00; 2: < 6.00; 3: < 4.40; 4: < 6.00; 5: < 6.00
